Catalogue of inhibition at 5 µM readings, one per entry.
# studySystem: ABCG2 (Homo sapiens, UniProt Q9UNQ0)
# Sequence (Q9UNQ0 whole entry): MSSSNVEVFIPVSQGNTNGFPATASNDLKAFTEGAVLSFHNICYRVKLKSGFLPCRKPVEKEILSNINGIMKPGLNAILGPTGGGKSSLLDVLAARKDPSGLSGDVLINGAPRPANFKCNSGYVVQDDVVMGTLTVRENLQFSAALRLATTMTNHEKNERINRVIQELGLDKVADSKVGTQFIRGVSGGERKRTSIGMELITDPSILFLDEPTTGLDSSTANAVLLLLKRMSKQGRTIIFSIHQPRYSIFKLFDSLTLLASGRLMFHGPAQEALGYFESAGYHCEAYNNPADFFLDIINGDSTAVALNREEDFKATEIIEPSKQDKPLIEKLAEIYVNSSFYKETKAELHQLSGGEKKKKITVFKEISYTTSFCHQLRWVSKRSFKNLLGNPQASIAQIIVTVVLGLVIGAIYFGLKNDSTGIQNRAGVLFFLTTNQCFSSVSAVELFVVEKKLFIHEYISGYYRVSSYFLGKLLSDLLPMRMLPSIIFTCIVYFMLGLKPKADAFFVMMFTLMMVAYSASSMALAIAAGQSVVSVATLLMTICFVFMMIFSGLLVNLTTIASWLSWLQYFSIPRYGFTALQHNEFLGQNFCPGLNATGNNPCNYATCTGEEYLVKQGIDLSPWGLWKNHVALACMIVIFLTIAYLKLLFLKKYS
# procedureSummary: Inhibition of ABCG2 (unknown origin)-mediated mitoxantrone efflux at 5 uM relative to control
# recordedConditions: probe mitoxantrone
Please state the figure in %; there is no need to write the unit.

O=C1CC(c2ccccc2)Cc2c1c1c(n2Cc2ccccc2)-c2ccccc2C1=O (centres undefined) = 68
CN(CCc1c[nH]c2ccccc12)C(=O)c1cc(=O)c2c(OCc3ccc(Br)cc3)cccc2o1 = 105
CN(CCc1cn(C)c2ccccc12)C(=O)c1cc(=O)c2c(OCc3ccc(Br)cc3)cccc2o1 = 88

Now turn to the next molecule.
The value of inhibition at 5 µM measured for the molecule COc1ccc2c3c([nH]c2c1)[C@H](C=C(C)C)N1C(=O)[C@@H]2CCCN2C(=O)[C@@H]1C3 turned out to be 100

====

# studySystem: Broad substrate specificity ATP-binding cassette transporter ABCG2 (Homo sapiens, UniProt Q9UNQ0)
# Sequence (Q9UNQ0 whole entry): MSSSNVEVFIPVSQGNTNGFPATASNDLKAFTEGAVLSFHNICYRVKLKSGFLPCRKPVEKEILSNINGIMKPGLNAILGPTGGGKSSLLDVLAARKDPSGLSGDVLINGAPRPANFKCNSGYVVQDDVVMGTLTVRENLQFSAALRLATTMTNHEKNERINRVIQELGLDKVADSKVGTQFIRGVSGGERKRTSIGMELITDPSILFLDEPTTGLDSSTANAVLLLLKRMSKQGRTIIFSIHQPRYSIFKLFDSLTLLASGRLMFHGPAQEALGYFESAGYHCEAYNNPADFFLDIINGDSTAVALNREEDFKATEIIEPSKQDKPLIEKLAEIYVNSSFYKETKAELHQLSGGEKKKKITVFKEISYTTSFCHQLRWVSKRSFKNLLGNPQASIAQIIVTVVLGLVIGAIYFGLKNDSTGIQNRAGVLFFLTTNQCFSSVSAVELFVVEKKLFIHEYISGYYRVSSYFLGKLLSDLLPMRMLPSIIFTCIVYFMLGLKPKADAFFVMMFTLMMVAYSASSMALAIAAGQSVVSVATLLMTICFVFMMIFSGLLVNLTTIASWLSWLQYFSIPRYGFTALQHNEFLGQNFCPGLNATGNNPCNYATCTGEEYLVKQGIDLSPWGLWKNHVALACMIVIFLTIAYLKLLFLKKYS
# procedureSummary: Inhibition of ABCG2 (unknown origin)-mediated mitoxantrone efflux
pEC50: −log10 of the molar value.
Label not met if pEC50 falls below 6; label met in every other case.

Check out these entries, answers already filled in.
COc1ccc2c3c([nH]c2c1)[C@H](C=C(C)C)N1C(=O)[C@@H]2CCCN2C(=O)[C@@H]1C3 [FUMITREMORGIN] = not met
O=C1CC(c2ccccc2)Cc2c1c1c(n2CCc2ccccc2)-c2ccccc2C1=O (stereo unspecified) = met
O=C1CCCc2c1c1c(n2CCc2ccccc2)-c2ccccc2C1=O = met
COc1ccc2[nH]cc(CCN(C)Cc3cc(=O)c4c(OCc5ccc(Br)cc5)cccc4o3)c2c1 = not met
CC(C)n1c2c(c3c1-c1ccccc1C3=O)C(=O)C(Cc1ccccc1)(Cc1ccccc1)CC2 = met

Please tell me: is the compound COc1cccc(CCn2c3c(c4c2-c2ccccc2C4=O)C(=O)CCC3)c1 at or over 6 in terms of pEC50?
met

Please tell me: is the compound CC1CC(=O)c2c3c(n(CCc4ccccc4)c2C1)-c1ccccc1C3=O (stereo unspecified) at or over 6 in terms of pEC50?
met

Please tell me: is the compound O=c1cc(-c2ccccc2)c(=O)c2c1c1c(=O)c3ccccc3c1n2CCc1ccccc1 at or over 6 in terms of pEC50?
met

====

# studySystem: UniProt Q9UNQ0
# Sequence (Q9UNQ0 whole entry): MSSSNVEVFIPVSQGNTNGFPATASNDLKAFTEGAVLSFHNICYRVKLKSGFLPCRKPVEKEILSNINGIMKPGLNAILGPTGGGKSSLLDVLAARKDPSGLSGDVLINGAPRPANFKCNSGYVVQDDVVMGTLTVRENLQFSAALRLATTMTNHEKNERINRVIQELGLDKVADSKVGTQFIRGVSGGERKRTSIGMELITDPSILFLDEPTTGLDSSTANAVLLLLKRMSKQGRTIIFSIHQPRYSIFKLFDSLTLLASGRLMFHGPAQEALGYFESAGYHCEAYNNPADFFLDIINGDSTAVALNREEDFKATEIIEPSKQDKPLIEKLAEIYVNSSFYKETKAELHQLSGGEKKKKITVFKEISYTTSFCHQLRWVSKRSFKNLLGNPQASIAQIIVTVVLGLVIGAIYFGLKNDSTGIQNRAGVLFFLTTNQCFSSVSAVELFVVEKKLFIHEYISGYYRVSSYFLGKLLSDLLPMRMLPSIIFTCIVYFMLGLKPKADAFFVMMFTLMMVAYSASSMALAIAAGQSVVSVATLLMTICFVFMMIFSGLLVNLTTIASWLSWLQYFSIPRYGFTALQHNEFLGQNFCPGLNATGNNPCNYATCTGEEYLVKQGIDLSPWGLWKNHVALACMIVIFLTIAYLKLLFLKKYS
# procedureSummary: Inhibition of ABCG2 (unknown origin) expressed in HEK293 cells assessed as reduction in mitoxantrone accumulation incubated for 30 mins by flow cytometric method
# Assay type: cell-based
experimentalReadout: pEC50
Interpret pEC50 as the negative base-10 log of the concentration measured in mol/L.

The value of pEC50 measured for the molecule C=CCOc1ccc(CNCCc2c[nH]c3ccccc23)cc1OCC turned out to be 6.89

====

Catalogue of inhibition at 5 µM readings, one per entry.
# studySystem: ABCG2 (Homo sapiens, UniProt Q9UNQ0)
# procedureSummary: Inhibition of ABCG2 (unknown origin)-mediated mitoxantrone efflux at 5 uM relative to control
# recordedConditions: probe mitoxantrone
Please state the figure in %; there is no need to write the unit.

The value of inhibition at 5 µM measured for the compound COc1cccc(CCn2c3c(c4c2-c2ccccc2C4=O)C(=O)CCC3)c1 turned out to be 78

The value of inhibition at 5 µM measured for the compound CC(C)n1c2c(c3c1-c1ccccc1C3=O)C(=O)C(Cc1ccccc1)(Cc1ccccc1)CC2 turned out to be 90

The value of inhibition at 5 µM measured for the compound COc1ccc2c(CCNC(=O)c3cc(=O)c4c(OCc5ccc(Br)cc5)cccc4o3)c[nH]c2c1 turned out to be 97

The value of inhibition at 5 µM measured for the compound CC1CC(=O)c2c3c(n(CCc4ccccc4)c2C1)-c1ccccc1C3=O (centres undefined) turned out to be 100

The value of inhibition at 5 µM measured for the compound COc1ccc2[nH]cc(CCNC(=O)c3cc(=O)c4c(OCc5ccc(Br)cc5)cccc4o3)c2c1 turned out to be 98

The value of inhibition at 5 µM measured for the compound O=c1ccc(=O)c2c1c1c(=O)c3ccccc3c1n2CCCc1ccccc1 turned out to be 33

The value of inhibition at 5 µM measured for the compound COc1ccc2[nH]cc(CCN(C)C(=O)c3cc(=O)c4c(OCc5ccc(Br)cc5)cccc4o3)c2c1 turned out to be 101

The value of inhibition at 5 µM measured for the compound Cn1cc(CCNC(=O)c2cc(=O)c3c(OCc4ccc(Br)cc4)cccc3o2)c2ccccc21 turned out to be 85

The value of inhibition at 5 µM measured for the compound Cc1cc(=O)c2c3c(=O)c4ccccc4c3n(CCc3ccccc3)c2c1=O turned out to be 99

====

# studySystem: ABCG2 (Homo sapiens, UniProt Q9UNQ0)
# procedureSummary: Inhibition of ABCG2 (unknown origin)-mediated mitoxantrone efflux at 5 uM relative to control
# recordedConditions: probe mitoxantrone
Catalogue of inhibition at 5 µM readings, one per entry.
Please state the figure in %; there is no need to write the unit.

Completed entries (count: 6):
O=C1CCCc2c1c1c(n2CCc2ccccc2)-c2ccccc2C1=O = 100
O=c1cc(-c2ccccc2)c(=O)c2c1c1c(=O)c3ccccc3c1n2Cc1ccccc1 = 41
O=C(NCc1cn(CCc2c[nH]c3ccccc23)nn1)c1cc(=O)c2c(OCc3ccc(Br)cc3)cccc2o1 = 87
O=C1CC(c2ccccc2)Cc2c1c1c(n2CCc2ccccc2)-c2ccccc2C1=O (configuration not stated) = 83
O=c1ccc(=O)c2c1c1c(=O)c3ccccc3c1n2CCc1ccccc1 = 18
O=C1CCCc2c1c1c(n2CCCc2ccccc2)-c2ccccc2C1=O = 83

Now turn to the next compound.
The value of inhibition at 5 µM measured for the compound O=c1cc(-c2ccccc2)c(=O)c2c1c1c(=O)c3ccccc3c1n2CCc1ccccc1 turned out to be 128
